Data provenance is ChEMBL document CHEMBL1817613.

Examples of compounds with documented LC50 follow.
System: HT-29
protocol_notes: Antitumor activity against human HT-29 cells after 72 hrs by SRB assay
Type: functional
details: HT-29, 72 h

compound	cmp	LC50, µM
C/C=C(\C)C(O)C(C)/C=C(C)/C=C/CC(C)/C=C/c1oc(OC)c(CC)c(=O)c1C (centres undefined)	>	22
C/C=C(\C)C(O[C@@H]1O[C@H](CO)[C@@H](O)[C@H](O)[C@H]1O)C(C)/C=C(C)/C=C/CC(C)/C=C/c1oc(OC)c(CC)c(=O)c1C (some centres undefined)	=	4.68
C/C=C(\C)[C@H](O)[C@H](C)/C=C(C)/C=C/CC(C)/C=C/c1oc(OC)c(C)c(=O)c1C (some centres undefined)	=	11.5
C/C=C(\C)C(O[C@@H]1O[C@H](CO)[C@@H](O)[C@H](O)[C@H]1O)C(C)/C=C(C)/C=C/CC(C)/C=C/c1oc(OC)c(C)c(=O)c1C (some centres undefined)	=	0.24
